system: A549-TUBA1B-RELA; experiment: phenotypically active (imaging signature differs from DMSO and reproducible) at any of 0.3-9 uM (binary (1 = active, 0 = inactive)); higher = active; details: treatment time: 24 h
Structures can show the parent of a compound that is named as a salt.
Item-by-item account of phenotypically active

[
  {
    "MOLECULE": "COCC(=O)N[C@@H](Cc1ccc(-c2cc(Cl)cc(Cl)c2)cc1)[C@H](O)[C@@H](O)C(=O)O",
    "phenotypically active": 0
  },
  {
    "MOLECULE": "O=C1/C(=C\\c2ccncc2)CCC/C1=C\\c1ccncc1",
    "phenotypically active": 0
  },
  {
    "MOLECULE": "CCc1ccc(/C=C/C(=O)Nc2ccc(C(C)=O)cc2)o1",
    "phenotypically active": 1
  },
  {
    "MOLECULE": "CC(C)(C)n1nc(-c2ccc(Cl)cc2)c2c(N)ncnc21",
    "phenotypically active": 1
  },
  {
    "MOLECULE": "COc1cc2c(cc1OC)CC(=O)N(CCCN(C)C[C@H]1Cc3cc(OC)c(OC)cc31)CC2",
    "phenotypically active": 0
  },
  {
    "MOLECULE": "O=C(Nc1ccncc1)c1cc([N+](=O)[O-])ccc1Cl",
    "phenotypically active": 1
  },
  {
    "MOLECULE": "CN(C)CCOC(=O)C(c1ccccc1)C1(O)CCCC1 (stereo not given) [cyclopentolate]",
    "phenotypically active": 0
  },
  {
    "MOLECULE": "CCn1c(=O)c2cc(C(N)=O)c(N)nc2n(C2CC2)c1=O",
    "phenotypically active": 0
  },
  {
    "MOLECULE": "COC(=O)C1=C(C)NC(C)=C(C(=O)OC)C1c1ccccc1[N+](=O)[O-]",
    "phenotypically active": 0
  },
  {
    "MOLECULE": "CC(C)(C(=O)c1cccnc1)c1cccnc1",
    "phenotypically active": 0
  },
  {
    "MOLECULE": "NC1(C(=O)N[C@@H](CCO)c2ccc(Cl)cc2)CCN(c2ncnc3[nH]ccc23)CC1",
    "phenotypically active": 1
  },
  {
    "MOLECULE": "Cc1noc(C)c1-c1cc(O)cc(C(O)c2ccccc2)c1 (stereo not given)",
    "phenotypically active": 1
  },
  {
    "MOLECULE": "Cn1cnc([N+](=O)[O-])c1Sc1ncnc2nc[nH]c12",
    "phenotypically active": 0
  },
  {
    "MOLECULE": "C[N+](C)(C)CCCCCC[N+](C)(C)C [Hexamethonium bromide]",
    "phenotypically active": 0
  },
  {
    "MOLECULE": "CC(C)C[C@H](NC(=O)OCC1c2ccccc2-c2ccccc21)C(=O)O",
    "phenotypically active": 0
  },
  {
    "MOLECULE": "COc1ccc(-c2ccc3ncc4c(c3c2)n(-c2ccc(N3CCNCC3)c(C(F)(F)F)c2)c(=O)n4C)cn1",
    "phenotypically active": 1
  },
  {
    "MOLECULE": "CCOC(=O)CCNc1cc(N2CCc3ccccc3CC2)nc(-c2ccccn2)n1",
    "phenotypically active": 1
  },
  {
    "MOLECULE": "CC(=O)OC(C)C[N+](C)(C)C (stereo not given)",
    "phenotypically active": 0
  },
  {
    "MOLECULE": "O=C(O)/C(Cc1ccccc1[N+](=O)[O-])=N\\Nc1nc(-c2ccc(Cl)c(Cl)c2)cs1",
    "phenotypically active": 0
  },
  {
    "MOLECULE": "NC(=O)Nc1sc(-c2ccc(F)cc2)cc1C(N)=O",
    "phenotypically active": 1
  },
  {
    "MOLECULE": "COc1ccc(CCc2nc3c(C)c(-c4c(C)noc4C)c(C)cc3n2CCN2CCOCC2)cc1",
    "phenotypically active": 0
  },
  {
    "MOLECULE": "CN(C)CCc1c[nH]c2ccc(C[C@H]3COC(=O)N3)cc12",
    "phenotypically active": 0
  },
  {
    "MOLECULE": "CCCCCOC(=O)Nc1nc(=O)n([C@@H]2O[C@H](C)[C@@H](O)[C@H]2O)cc1F",
    "phenotypically active": 0
  },
  {
    "MOLECULE": "CC(C)(C)c1ccc2cc(C#N)c(C#N)cc2c1",
    "phenotypically active": 0
  },
  {
    "MOLECULE": "COCCOC(=O)C1=C(C)NC(C)=C(C(=O)OC(C)C)C1c1cccc([N+](=O)[O-])c1 (stereo not given)",
    "phenotypically active": 0
  },
  {
    "MOLECULE": "Cc1cc(C(C)Nc2ccccc2)c2nc(N3CCOCC3)cc(=O)n2c1 (stereo not given)",
    "phenotypically active": 0
  },
  {
    "MOLECULE": "CC(C)(C)NC[C@H](O)COc1cccc2c1CCCC2=O",
    "phenotypically active": 0
  },
  {
    "MOLECULE": "CC(C)COCC(CN(Cc1ccccc1)c1ccccc1)N1CCCC1 (stereo not given)",
    "phenotypically active": 1
  },
  {
    "MOLECULE": "Cc1cc2sc(NC(=O)Cc3ccccc3)nc2cc1Cl",
    "phenotypically active": 1
  },
  {
    "MOLECULE": "CN(C)CC/C=C1\\c2ccccc2COc2ccc(CC(=O)O)cc21",
    "phenotypically active": 0
  },
  {
    "MOLECULE": "CCNC(=O)c1noc(-c2cc(C(C)C)c(O)cc2O)c1-c1ccc(CN2CCOCC2)cc1",
    "phenotypically active": 1
  },
  {
    "MOLECULE": "O=C1NC(=O)C(c2ccccc2[N+](=O)[O-])=C1Nc1ccc(O)c(Cl)c1",
    "phenotypically active": 1
  },
  {
    "MOLECULE": "CCN(CCO)CCCOc1ccc2c(Nc3cc(CC(=O)Nc4cccc(F)c4)n[nH]3)ncnc2c1",
    "phenotypically active": 1
  },
  {
    "MOLECULE": "Cc1ccc(NC(=O)c2cccc(N(C)C)c2)cc1NC(=O)c1ccc(O)cc1",
    "phenotypically active": 1
  },
  {
    "MOLECULE": "CC(=O)Nc1nnc(S(N)(=O)=O)s1 [acetazolamide]",
    "phenotypically active": 0
  },
  {
    "MOLECULE": "COc1ccc(N(C)c2nc(C)nc3ccccc23)cc1 [MPC 6827 hydrochloride]",
    "phenotypically active": 1
  },
  {
    "MOLECULE": "Cn1cc(-c2cnc3ccc4ccc(CS(=O)(=O)NCc5ccccn5)cc4c(=O)c3c2)cn1",
    "phenotypically active": 1
  },
  {
    "MOLECULE": "O=c1oc2c(O)c(O)cc3c(=O)oc4c(O)c(O)cc1c4c23",
    "phenotypically active": 0
  },
  {
    "MOLECULE": "O=C(COc1cccc2c(=O)[nH]ccc12)c1ccccc1",
    "phenotypically active": 0
  },
  {
    "MOLECULE": "COc1cc(Br)c(Nc2nc(-c3c(C)nc4ncccn34)cs2)c(Br)c1",
    "phenotypically active": 1
  }
]
